tested on: F380Y; assay: modulators of BK channel variants, profiling panel, selectivity assay, cell-based, U2OS BacMam, thallium flux, beta subunits (AID 1259406); conditions: at 30 µM;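 also: initial slope of Thallos dye fluorescence rise after thallium is added; log ratio against the mean of 0.3% DMSO vehicle wells on the same plate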
parameterMeasured: log fold change Tl+ flux
The response must contain the number and no unit.

CSc1nc(C)nc(Sc2cccc(C(F)(F)F)c2)c1C#N : -0.0573

Input line: For the compound shown here, CN(Cc1nnc(-c2ccc3ccccc3c2)o1)c1nnc(C(F)(F)F)s1 , give the reported log fold change Tl+ flux.
Output line: 0.00202

Input line: Same lookup for O=C(NC(=O)C12CC3CC(CC(C3)C1)C2)Nc1ccc(Cl)cc1 , please.
Output line: 0.00432

Input line: Same lookup for NCC(O)c1ccc(O)c(O)c1 (centres undefined) , please.
Output line: -0.00325
